GI50: recorded values
Tested on: OVCAR-8
Assay: NCI tumour cell line growth inhibition, 48 h
Active and inactive are the calls of the source. Rule as the data show it: active = GI50 up to about 1.1 µM and inactive = higher.

Please review the entries below; each comes with its answer.
INSERT INTO measurements (compound, reported_measurement) VALUES
  ('Nc1ncc2ncn(C3CCC(CO)O3)c2n1 (stereo not drawn)', '> 100 µM (inactive)'),
  ('CCOC(=O)c1nc2cc(C(F)(F)F)ccc2nc1Oc1ccc(C#N)cc1', '> 100 µM (inactive)'),
  ('CC(=O)OC1CC[C@@]2(C)C(CC[C@]3(C)C2CC=C2[C@@H]4C(C)[C@H](C)CCC4(C)CCC23C)[C@@]1(C)C(=O)O (stereo partly drawn)', '23.6 µM (inactive)'),
  ('CCc1ccc2c(c1)/C(=C1/Nc3ccccc3/C1=N/O)C(=O)N2', '6.55 µM (inactive)'),
  ('Cc1cc(C)nc(NS(=O)(=O)c2ccc(NC(=O)c3cccn4c(=O)c5ccccc5nc34)cc2)n1', '27.7 µM (inactive)'),
  ('CN(C)C(=S)/N=c1\ss/c(=N\C(=S)N(C)C)n1Cc1ccco1', '> 100 µM (inactive)');

Sample `O=NN(CCCl)C(=O)N[C@H]1CC[C@@H](O)CC1` — what was its GI50?
33 µM (inactive)

GET /values?readout=GI50&item= N#CC(C(=O)CCC(=O)Nc1ccc(Cl)c(Cl)c1)c1ccc(Cl)cc1 (stereo not drawn)
> 100 µM (inactive)

Which GI50 value belongs to `CC(=O)Nc1ccc(-c2nnc(SCC(=O)Nc3cccc(Cl)c3)o2)cc1` ?
33.2 µM (inactive)

GI50 for `Cn1c(=O)c2c3ccccc3n(C)c2n(C)c1=O` ?
> 100 µM (inactive)

# GI50 lookup, item `O=c1c(-c2ccccc2Cl)coc2cc(F)ccc12`
33.7 µM (inactive)

Report GI50 for `Cc1ccc(C2=CC(=O)/C(=C\C(=O)c3ccc(Br)cc3)O2)c(C)c1` please.
6.58 µM (inactive)

Which GI50 value is on record for COc1ccc(/C=C2\CCC(CNc3cc(C)on3)C2=O)cc1 (stereo not drawn) ?
> 100 µM (inactive)

---

Tested on: HOP-92
Assay: NCI tumour cell line growth inhibition, 48 h
Activity calls are given as the source filed them. Cut-off read from the data, not from the text of the source: active = GI50 up to about 1.1 µM and inactive = higher.
Your reply should match one of these outcome classes. active, inactive

Study these solved cases before continuing.
INSERT INTO results (compound, tgt, assigned_category) VALUES
  ('COc1ccc(/N=N/C(=NNC(=O)c2ccc(C)cc2)c2ccc(N(C)C)cc2)cc1', 'HOP-92', 'inactive'),
  ('CC(=O)Oc1ccc2cc(Oc3ccccc3)c(=O)oc2c1', 'HOP-92', 'inactive');

// param item: CCCCOC(=O)C1CN2C(=NC1(C(F)(F)F)C(F)(F)F)Sc1ccccc12 (stereo unspecified) ; yields the recorded call
inactive

Which outcome did this test record for the compound O=C(CC(c1ccccc1)N1CCCCC1)c1ccccc1 (stereo unspecified) ?
inactive

Short answer needed: outcome of this test for `C/C(=N\NC(=S)N(C)C)c1ccccn1` ?
active

What call does the record list for CCOC(=O)C1C(c2ccccc2)C2(C#N)C(=N)OC1(C)C2(C#N)C#N (stereo unspecified) ?
inactive

Assay result, entry CCCCCCCCCCCCCCCCSCC(COC)COP(=O)([O-])OCC[N+](C)(C)C (stereo unspecified) — outcome?
inactive

How was `Cc1ccc(N2CCN(CCC(=O)O)CC2)cc1` classified in this test?
inactive
